Overview of reported shrunken log2 fold change across a group of sequences:
Test system: Escherichia coli TOP10;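 note: peptides expressed intracellularly from a pBAD plasmid library in pooled LB shake-flask culture, induced with 0.3% L-arabinose, DNA abundance read by NGS, three biological replicates, DESeq2 with apeglm shrinkage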
Method: shrunken log2 fold change of peptide-encoding DNA abundance (4.5 h post-induction vs induction); higher = less antimicrobial activity (less host growth inhibition)
Assay conditions: time post-induction: 4.5 h; library: site-saturation at positions 5, 18, 19, 20

Seq text: RRIRIRPPRLPRPRPRPYHIPRP
shrunken log2 fold change: -0.0511

Seq text: RRIRFRPPRLPRPRPRPGDTPRP
shrunken log2 fold change: -0.309

Seq text: RRIRERPPRLPRPRPRPGVYPRP
shrunken log2 fold change: -0.049

Seq text: RRIRPRPPRLPRPRPRPCVFPRP
shrunken log2 fold change: -0.164

Seq text: RRIRLRPPRLPRPRPRPLTQPRP
shrunken log2 fold change: 0.343

Seq text: RRIRQRPPRLPRPRPRPMTKPRP
shrunken log2 fold change: -0.0865

Seq text: RRIRLRPPRLPRPRPRPLVAPRP
shrunken log2 fold change: 0.343

Seq text: RRIRHRPPRLPRPRPRPKMNPRP
shrunken log2 fold change: -0.487

Seq text: RRIRIRPPRLPRPRPRPPERPRP
shrunken log2 fold change: 0.324

Seq text: RRIRGRPPRLPRPRPRPIRIPRP
shrunken log2 fold change: 0.217

Seq text: RRIRRRPPRLPRPRPRPDDDPRP
shrunken log2 fold change: 0.129

Seq text: RRIRDRPPRLPRPRPRPRMMPRP
shrunken log2 fold change: 0.312

Seq text: RRIRGRPPRLPRPRPRPIENPRP
shrunken log2 fold change: 0.745

Seq text: RRIRWRPPRLPRPRPRPNFSPRP
shrunken log2 fold change: -0.305
